This collection of values is drawn from patent US9440978B2.

Target: rat TRPV1 (Rattus norvegicus, UniProt O35433)
Construct: expressed in transfected cells; host or cells: HEK293
Sequence (O35433 whole entry): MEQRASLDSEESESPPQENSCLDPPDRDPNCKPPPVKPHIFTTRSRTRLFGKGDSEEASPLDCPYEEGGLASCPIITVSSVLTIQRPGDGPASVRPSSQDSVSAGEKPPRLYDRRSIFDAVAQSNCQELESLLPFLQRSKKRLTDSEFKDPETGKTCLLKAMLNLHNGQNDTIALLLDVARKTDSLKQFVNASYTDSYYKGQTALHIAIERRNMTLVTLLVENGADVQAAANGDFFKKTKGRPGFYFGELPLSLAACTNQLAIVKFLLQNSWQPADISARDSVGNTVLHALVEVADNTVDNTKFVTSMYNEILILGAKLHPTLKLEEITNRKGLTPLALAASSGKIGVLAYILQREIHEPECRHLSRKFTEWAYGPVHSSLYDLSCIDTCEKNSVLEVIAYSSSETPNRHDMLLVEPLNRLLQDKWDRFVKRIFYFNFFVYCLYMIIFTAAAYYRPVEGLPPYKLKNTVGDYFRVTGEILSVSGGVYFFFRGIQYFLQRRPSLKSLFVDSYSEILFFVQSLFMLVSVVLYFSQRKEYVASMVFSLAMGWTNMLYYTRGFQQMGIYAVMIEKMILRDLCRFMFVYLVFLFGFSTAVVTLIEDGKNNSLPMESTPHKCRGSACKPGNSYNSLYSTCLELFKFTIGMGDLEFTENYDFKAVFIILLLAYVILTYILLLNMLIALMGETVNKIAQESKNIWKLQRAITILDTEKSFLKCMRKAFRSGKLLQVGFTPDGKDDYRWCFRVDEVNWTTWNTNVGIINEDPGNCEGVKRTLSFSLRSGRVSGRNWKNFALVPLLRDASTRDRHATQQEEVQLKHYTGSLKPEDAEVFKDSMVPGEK
Experiment: Block of capsaicin-induced Ca2+ influx, rat assay (rTRPV1/HEK293, FLIPR)
Type: cell-based
Conditions: HEK293 cells transfected with rat TRPV1; capsaicin challenge; mean; > value = solubility limit in assay medium; read-out: Rat IC50
Experimental: HEK293 cells were transfected with human TRPV1 cloned in pcDNA3.1zeo(+) using the Effectene non-liposomal lipid based transfection kit (Qiagen) (hTRPV1/HEK293). hTRPV1/HEK293 cells were routinely grown as monolayers under selection in zeocin (200 μg/mL; Invitrogen) in Dulbecco's Modified Eagle Medium (DMEM, Gibco BRL) supplemented with 10% fetal bovine serum, and penicillin/streptomycin (50 units/mL) in 5% CO2 at 37° C. […] The IC50 values were determined. […]
Counter-ions that a name gives are not always drawn.
property.label: IC50 (nM)
Note: unit nM is implicit; provide only the numeric part.

Check out these entries, answers already filled in.
>>> data_value("FC(F)(F)c1ccc(Nc2nc(N3CCC3)nc3sc(Cc4c(Cl)cccc4Cl)nc23)cc1 [Example 73]")
63
>>> data_value("FC(F)(F)c1ccc(Nc2ncnc3sc(Cc4ccccc4)nc23)cc1 [Example 32]")
55
>>> data_value("FC(F)(F)c1nnc(Nc2ncnc3sc(Cc4c(Cl)cccc4Cl)nc23)s1 [Example 98]")
1050
>>> data_value("CC(C)C1CCCN1c1nc(Nc2ccc(C(F)(F)F)cc2)c2nc(Cc3c(Cl)cccc3Cl)sc2n1 (stereo not shown) [Example 68]")
1690
>>> data_value("FC(F)(F)c1ccc(Nc2nc(NCC3CCCCN3)nc3sc(Cc4c(Cl)cccc4Cl)nc23)cc1 (stereo not shown) [Example 90, hydrochloride salt]")
9710
>>> data_value("Cc1ccccc1Cc1nc2c(Nc3ccc(C(F)(F)F)nc3)ncnc2s1 [Example 18]")
154

Look up and report measured IC50 for this entry: NC(=O)c1ccc(-c2ccccc2Cc2nc3c(Nc4ccc(C(F)(F)F)cc4)ncnc3s2)cc1 [Example 107]
1530

Look up and report measured IC50 for this entry: FC(F)(F)c1ccc(Nc2ncnc3sc(Cc4ccccc4Cl)nc23)cc1 [Example 20]
32

====

Catalogue of compounds with associated pIC50
Molecular target: rat TRPV1 (Rattus norvegicus, UniProt O35433)
Construct: expressed in transfected cells; host or cells: HEK293
Assay: Block of capsaicin-induced Ca2+ influx, rat assay (rTRPV1/HEK293, FLIPR)
Type: cell-based
Conditions: HEK293 cells transfected with rat TRPV1; capsaicin challenge; mean; > value = solubility limit in assay medium; read-out: Rat IC50
Structures can show the parent of a compound that is named as a salt.
Value format note: pIC50 is -log10 of concentration (mol/L); just state the number.

>>> data_value("FC(F)(F)c1ccc(Nc2nc(NCc3ccccn3)nc3sc(Cc4c(Cl)cccc4Cl)nc23)cc1 [Example 84, trifluoroacetic acid salt]")
7.42
>>> data_value("FC(F)(F)c1ccc(Nc2nc(N3CCOCC3)nc3sc(Cc4c(Cl)cccc4Cl)nc23)cc1")
5.45

Look up and report measured pIC50 for this entry: CC(CO)Nc1nc(Nc2ccc(C(F)(F)F)cc2)c2nc(Cc3c(Cl)cccc3Cl)sc2n1 (stereo not shown)
5.99

Look up and report measured pIC50 for this entry: FC(F)(F)c1ccc(Nc2nc(NCCN3CCOCC3)nc3sc(Cc4c(Cl)cccc4Cl)nc23)cc1 [Example 65, trifluoroacetic acid salt]
6.58

Look up and report measured pIC50 for this entry: CC(C)CNc1nc(Nc2ccc(C(F)(F)F)cc2)c2nc(Cc3c(Cl)cccc3Cl)sc2n1
7.85

Look up and report measured pIC50 for this entry: FC(F)(F)c1ccc(Nc2ncnc3sc(Cc4ccccc4C(F)(F)F)nc23)cc1
8.40

Look up and report measured pIC50 for this entry: CC(Nc1nc(Nc2ccc(C(F)(F)F)cc2)c2nc(Cc3c(Cl)cccc3Cl)sc2n1)c1ccccn1 (stereo not shown)
7.68

Look up and report measured pIC50 for this entry: Cc1cccc(C)c1Cc1nc2c(Nc3ccc(C(F)(F)F)nc3)ncnc2s1
6.74

Look up and report measured pIC50 for this entry: FC(F)(F)c1ccc(Nc2ncnc3sc(Cc4ccccc4Cl)nc23)cn1
7.27
